Hello, the source for this data is PubChem BioAssay (NCI), in case you need it.

test system: SNB-19 CNS; assay: NCI tumour cell line growth inhibition, 48 h
Entries and their measured TGI follow.

Study these solved cases before continuing.
Specify TGI for CCOC(=O)C(Cc1c(C=O)[nH]c2ccccc12)(NC(=O)c1ccccc1)C(=O)OCC , system SNB-19 CNS.
18.4 µM

Specify TGI for Cc1cc2c(cc1C)[n+](=O)c(C(=O)C(C)(C)C)c(C(F)(F)F)n2[O-] , system SNB-19 CNS.
> 100 µM

Others:
Specify TGI for COc1ccc(N[C@H]([C@@H](c2ccccc2)S(=O)c2ccc(C)cc2)C(F)(F)F)cc1 (some centres undefined) , system SNB-19 CNS.
> 100 µM

Specify TGI for Cc1cc(-c2ccc[nH]2)on1 , system SNB-19 CNS.
> 100 µM

Specify TGI for CCCCCCSC[C@H](OC(C)=O)[C@@H](OC(C)=O)[C@@H](OC(C)=O)[C@@H](COC(C)=O)OC(C)=O , system SNB-19 CNS.
> 100 µM

Specify TGI for CC(C)CC(NC(=O)C(CSc1ccc([N+](=O)[O-])cc1)Cc1ccccc1)C(=O)Nc1ccccc1 (centres undefined) , system SNB-19 CNS.
> 100 µM

Specify TGI for CC(C)Cc1ccc(C(C)C(=O)NCc2ccc(Cn3c(=O)sn(CCCCl)c3=O)cc2)cc1 (centres undefined) , system SNB-19 CNS.
3.3 µM

Specify TGI for COc1cc2cc(c1Cl)N(C)C(=O)C[C@H](OC(=O)[C@H](C)N(C)C(=O)CCS)C[C@]1(C)O[C@H]1[C@H](C)[C@@H]1C[C@@](O)(NC(=O)O1)[C@H](OC)/C=C/C=C(\C)C2 , system SNB-19 CNS.
> 50 µM

Specify TGI for Cc1cc(C)c2ccc(N3CCNCC3)nc2n1 , system SNB-19 CNS.
> 100 µM

* * *

Entries and their measured TGI follow.
test system: SK-MEL-2 melanoma; assay: NCI tumour cell line growth inhibition, 48 h

Specify TGI for Nc1ccn(C2OC(CO)C(O)C2(F)F)c(=O)n1 (stereo unspecified) , system SK-MEL-2 melanoma.
> 100 µM

Specify TGI for CC1(c2ccccc2)N=C(C(N)=O)c2[nH]cnc2N1 (stereo unspecified) , system SK-MEL-2 melanoma.
> 100 µM

Specify TGI for CCC1(CC)C(=O)N(C(=O)c2ccc(C)cc2)N(C(=O)c2ccc(C)cc2)C1=O , system SK-MEL-2 melanoma.
> 75 µM

Specify TGI for O=C1Nc2ccccc2/C1=C/C(=O)c1ccc(N2CCCC2)cc1 , system SK-MEL-2 melanoma.
> 100 µM

* * *

Entries and their measured TGI follow.
system: HT29 colon; assay: NCI tumour cell line growth inhibition, 48 h

Give the measured TGI for O=C1/C(=N\n2c(-c3ccncc3)n[nH]c2=S)c2cc(Cl)ccc2N1CN1CCCCC1
> 100 µM

Give the measured TGI for C[O+]=c1cccc2ssnc1-2
> 100 µM

Others:
Give the measured TGI for O=C1/C(=N\O)C2CCC1C2 (stereo unspecified)
> 100 µM

Give the measured TGI for CC1(c2ccccc2)N=C(C(N)=O)c2[nH]cnc2N1 (stereo unspecified)
> 100 µM

Give the measured TGI for C[C@@H](c1ccccc1)N1CN(C(=O)OCc2ccccc2)C(CO)C1=O (stereo partly specified)
> 100 µM

Give the measured TGI for CC(C)=CC1CC(=O)C1(C)Sc1ccccc1 (stereo unspecified)
66.6 µM

Give the measured TGI for CCCCCNC(=O)c1cc2cc(CCl)ccc2oc1=O
9.58 µM

* * *

test system: OVCAR-8 ovarian; test: NCI tumour cell line growth inhibition, 48 h
Entries and their measured GI50 follow.

Study these solved cases before continuing.
Give the measured GI50 for c1ccc(CSCCNCCN(CCNCCSCc2ccccc2)CCNCCSCc2ccccc2)cc1
1.57 µM

Give the measured GI50 for O=C(O)CN(CCN(CC(=O)O)CC(=O)O)CC(=O)O
> 100 µM

Others:
Give the measured GI50 for CCOC(=O)C1=C(C)N=C2SC=C(c3ccccc3)N2[C@H]1c1cn[nH]c1-c1ccc(Cl)cc1
4.46 µM

Give the measured GI50 for c1ccc2nc3c(cc2c1)Sc1cc2ccccc2[n+]2c1N3CC2
25.3 µM

Give the measured GI50 for CC(C)Cc1ccc(C(C)C(=O)NCc2ccc(Cn3c(=O)sn(CCCCl)c3=O)cc2)cc1 (stereo not given)
1.21 µM

* * *

Entries and their measured TGI follow.
tested on: SNB-19 CNS; experiment: NCI tumour cell line growth inhibition, 48 h

Study these solved cases before continuing.
Specify TGI for S=C(S)N1CCOCC1 , system SNB-19 CNS.
> 100 µM

Specify TGI for O=[N+]([O-])C(=C1NCCN1)C(Cl)=C(Cl)Cl , system SNB-19 CNS.
> 100 µM

Specify TGI for CC1(c2ccccc2)N=C(C(N)=O)c2[nH]cnc2N1 (configuration not stated) , system SNB-19 CNS.
> 100 µM

Specify TGI for Clc1ccc(C2=Nc3ccccc3SC(c3cccs3)C2)cc1 (configuration not stated) , system SNB-19 CNS.
30.3 µM

Specify TGI for COc1cc2c3c(n(CCCn4ccnc4)c(=O)c2cc1OC)-c1cc2c(cc1C3=O)OCO2 , system SNB-19 CNS.
> 100 µM

Others:
Specify TGI for Cc1cc(C(=O)CBr)c(CN2C(=O)c3ccccc3C2=O)c(=O)n1C , system SNB-19 CNS.
93.2 µM

Specify TGI for CC(=O)Nc1nc2ncc(C=O)nc2c(=O)[nH]1 , system SNB-19 CNS.
> 100 µM

Specify TGI for NC(=O)c1ncn2c1CNC(=O)C2 , system SNB-19 CNS.
> 100 µM

Specify TGI for Cc1nc2ccc(Nc3nc(Cl)nc(Nc4ccc(F)cc4)n3)cc2n1Cc1ccccc1 , system SNB-19 CNS.
26.9 µM

Specify TGI for OCCCc1n(Cc2ccc3ccccc3c2)c2ccccc2[n+]1Cc1ccc2ccccc2c1 , system SNB-19 CNS.
2.85 µM

Specify TGI for NC1CCCCC1 , system SNB-19 CNS.
> 562 µM

Specify TGI for COc1ccc(-n2c(N)c(C#N)c(C#N)c2-c2cccc([N+](=O)[O-])c2)cc1 , system SNB-19 CNS.
> 100 µM

* * *

tested on: OVCAR-5 ovarian; assay: NCI tumour cell line growth inhibition, 48 h; in the data active = GI50 below about 0.43 µM; inactive = the rest
Valid outcomes are listed here; reply with one: class 1 = active, class 0 = inactive

Example results:
Which result was noted for this molecule in the test: O=C1c2ccccc2-c2c1c1ccc([N+](=O)[O-])cc1c(=O)n2CCCN1CCOCC1
class 0

Which result was noted for this molecule in the test: COc1cc2cc(c1Cl)N(C)C(=O)C[C@H](OC(=O)[C@H](C)N(C)C(=O)CCS)C[C@]1(C)O[C@H]1[C@H](C)[C@@H]1C[C@@](O)(NC(=O)O1)[C@H](OC)/C=C/C=C(\C)C2
class 1

Which result was noted for this molecule in the test: CC(=O)O[C@H]1CC[C@]2(C)[C@H]3CC=C4[C@@H]5CC(C)(C)CC[C@]5(C(=O)NCCNCCNCCN)CC[C@@]4(C)[C@]3(C)CC[C@H]2C1(C)C
class 0

Which result was noted for this molecule in the test: Cc1ccc(/C=C2\COc3ccc(O)c(O)c3C2=O)cc1
class 0

Which result was noted for this molecule in the test: COc1cccc(C(=O)c2sc(Nc3ccc(N4CCN(C(C)C)CC4)cc3)nc2N)c1
class 0

Which result was noted for this molecule in the test: CCOC(=O)C1=C(C)N=C2SC=C(c3ccccc3)N2[C@H]1c1cn[nH]c1-c1ccc(Cl)cc1
class 0

Which result was noted for this molecule in the test: Nc1ccn(C2OC(CO)C(O)C2(F)F)c(=O)n1 (stereo not given)
class 1

Which result was noted for this molecule in the test: COc1cc(/C=C2\CN(S(=O)(=O)c3ccc(C)cc3)C/C(=C\c3cc(CN4CCOCC4)c(O)c(OC)c3)C2=O)cc(CN2CCOCC2)c1O
class 0

Others:
Which result was noted for this molecule in the test: CC(C)Cc1ccc(C(C)C(=O)NCc2ccc(Cn3c(=O)sn(CCCCl)c3=O)cc2)cc1 (stereo not given)
class 0

Which result was noted for this molecule in the test: Cc1nc2ccc(Nc3nc(Cl)nc(Nc4ccc(F)cc4)n3)cc2n1Cc1ccccc1
class 0

* * *

test system: HCT-15 colon; experiment: NCI tumour cell line growth inhibition, 48 h
Entries and their measured TGI follow.

Study these solved cases before continuing.
Give the measured TGI for Cc1ccc(C2C(C(=O)C(C)(C)C)N2S(=O)(=O)c2ccc(C)cc2)cc1 (stereo unspecified)
47.5 µM

Give the measured TGI for O=C(CNC(=O)c1ccccc1)Oc1c(Cl)c(Cl)c(Cl)c(Cl)c1Cl
> 100 µM

Give the measured TGI for Clc1ccc(C2=Nc3ccccc3SC(c3cccs3)C2)cc1 (stereo unspecified)
27.1 µM

Give the measured TGI for Nc1ccn(C2OC(CO)C(O)C2(F)F)c(=O)n1 (stereo unspecified)
> 100 µM

Give the measured TGI for CC=C(CBr)CCC(Br)C(C)(C)Cl (mixture of isomers)
> 10 µM

Give the measured TGI for O=CC12c3ccccc3C(c3ccccc31)C1C(=O)NC(=O)C12 (stereo unspecified)
> 100 µM

Others:
Give the measured TGI for O=C1c2ccccc2-c2c1c1ccc([N+](=O)[O-])cc1c(=O)n2CCCN1CCOCC1
> 100 µM

Give the measured TGI for COC1CC(C)(NC(C)=O)C2OC(c3ccccc3)OCC2O1 (stereo unspecified)
> 100 µM

Give the measured TGI for O=c1ssc2c1Nc1c(ssc1=O)S2
41.3 µM

Give the measured TGI for CCOC(=O)c1nnsc1NC(=O)NN
> 100 µM

Give the measured TGI for CN(C)c1ccc(C2SCC(=O)N2c2nc3cc4sc(N5C(=O)CSC5c5ccc(N(C)C)cc5)nc4cc3s2)cc1 (stereo unspecified)
> 100 µM
